TARGET DESC: HIV-1 Env of isolate MGRM-A-013 (pseudovirus) (HIV-1)
EXPERIMENTAL PROTOCOL: cell-based or functional assay
Give IC50 (µg/mL), pseudovirus neutralization for every item shown.
Give the value; after it, write the unit.

Q. Supply IC50 (µg/mL), pseudovirus neutralization value. Item: PGT-126 (5141_B17) (antibody, V domains shown) VH: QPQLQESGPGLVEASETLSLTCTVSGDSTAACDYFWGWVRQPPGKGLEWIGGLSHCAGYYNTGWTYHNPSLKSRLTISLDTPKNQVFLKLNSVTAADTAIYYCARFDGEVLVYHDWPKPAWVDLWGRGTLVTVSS VL: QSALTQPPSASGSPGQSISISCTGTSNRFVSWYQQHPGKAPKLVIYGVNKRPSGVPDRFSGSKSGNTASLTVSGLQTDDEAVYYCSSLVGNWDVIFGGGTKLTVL
A. 0.006 µg/mL

Q. Please list IC50 (µg/mL), pseudovirus neutralization recorded for the binder PGT-125 (5123_A06) (antibody, V domains shown) VH: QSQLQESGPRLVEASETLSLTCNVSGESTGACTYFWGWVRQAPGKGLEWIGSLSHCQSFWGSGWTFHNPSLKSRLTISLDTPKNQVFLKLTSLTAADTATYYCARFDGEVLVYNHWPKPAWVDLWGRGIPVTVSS VL: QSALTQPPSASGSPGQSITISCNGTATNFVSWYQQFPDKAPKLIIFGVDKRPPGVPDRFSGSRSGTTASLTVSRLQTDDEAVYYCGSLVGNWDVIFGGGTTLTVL
A. 0.014 µg/mL

Q. Please list IC50 (µg/mL), pseudovirus neutralization recorded for the binder PGT-127 (5145_B14) (antibody, V domains shown) VH: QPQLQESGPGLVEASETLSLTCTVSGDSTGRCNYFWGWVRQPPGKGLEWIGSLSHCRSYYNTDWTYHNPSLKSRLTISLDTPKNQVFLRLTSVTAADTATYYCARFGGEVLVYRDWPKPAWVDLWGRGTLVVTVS VL: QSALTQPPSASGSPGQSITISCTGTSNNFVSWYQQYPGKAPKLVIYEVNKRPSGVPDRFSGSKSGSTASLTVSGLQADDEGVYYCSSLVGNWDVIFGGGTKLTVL
A. 0.029 µg/mL

Q. Annotate the binder PGT-123 (4858_P08) (antibody, V domains shown) VH: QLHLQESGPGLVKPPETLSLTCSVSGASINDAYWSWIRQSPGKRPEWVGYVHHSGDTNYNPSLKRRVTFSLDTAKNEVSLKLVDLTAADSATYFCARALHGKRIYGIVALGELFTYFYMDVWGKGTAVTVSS VL: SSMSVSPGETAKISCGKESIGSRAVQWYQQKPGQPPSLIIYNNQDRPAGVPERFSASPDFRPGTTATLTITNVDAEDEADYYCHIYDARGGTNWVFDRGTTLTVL with its measured IC50 (µg/mL), pseudovirus neutralization.
A. 0.565 µg/mL
